tested on: human breast adenocarcinoma (MCF-7); assay: MTT cytotoxicity, MCF-7; format: cell-based; conditions: Homo sapiens, MCF7, MCF-7 cells
TEST READOUT: IC50 (µM)

{"columns": ["COMPOUND", "QUANTITY UNIT", "ENDPOINT VALUE"],
 "data": [
  ["COc1cccc2c1C(=O)c1c(O)c3c(c(O)c1C2=O)C[C@@](O)(C(=O)CO)C[C@@H]3O[C@H]1C[C@H](N)[C@H](O)[C@H](C)O1 [Doxorubicin, reference compound]", "µM", 0.64],
  ["CCOC(=O)C1=C(N/C(=C(/C#N)C(=O)OCC)c2ccc(C)cc2)Oc2cc(O)c(/N=N/c3ccc(S(N)(=O)=O)cc3)cc2C1c1ccc(C)cc1 (stereo not shown) [11a]", "µM", 20.8],
  ["CCOC(=O)C1=C(N)Oc2cc(O)c(/N=N/c3ccc(S(N)(=O)=O)cc3)cc2C1c1ccc(Cl)cc1 (stereo not shown) [7f]", "µM", 3.93],
  ["CCOC(=O)C1=C(N)Oc2cc(O)c(/N=N/c3ccc(S(N)(=O)=O)cc3)cc2C1c1ccc(OC)cc1 (stereo not shown) [7c]", "µM", 104],
  ["CCOC(=O)C1=C(N/C(=C(/C#N)C(=O)OCC)c2ccc(C)cc2)Oc2cc(O)c(/N=N/c3ccc(S(=O)(=O)Nc4cc(C)no4)cc3)cc2C1c1ccc(C)cc1 (stereo not shown) [11e]", "µM", 23.6],
  ["CCOC(=O)C1=C(N)Oc2cc(O)c(/N=N/c3ccc(S(N)(=O)=O)cc3)cc2C1c1ccc(F)cc1 (stereo not shown) [7e]", "µM", 6.15],
  ["CCOC(=O)C1=C(N/C(=C(/C#N)C(=O)OCC)c2ccc(C)cc2)Oc2cc(O)c(/N=N/c3ccc(S(=O)(=O)NC(=N)N)cc3)cc2C1c1ccc(C)cc1 (stereo not shown) [11c]", "µM", 105],
  ["CCOC(=O)C1=C(N)Oc2cc(O)c(/N=N/c3ccc(S(N)(=O)=O)cc3)cc2C1c1ccc([N+](=O)[O-])cc1 (stereo not shown) [7d]", "µM", 97.9],
  ["CCOC(=O)C1=C(N/C(=C(/C#N)C(=O)OCC)c2ccc(C)cc2)Oc2cc(O)c(/N=N/c3ccc(S(=O)(=O)NC(C)=O)cc3)cc2C1c1ccc(C)cc1 (stereo not shown) [11b]", "µM", 66],
  ["CCOC(=O)C1=C(N)Oc2cc(O)c(/N=N/c3ccc(S(N)(=O)=O)cc3)cc2C1c1ccccc1 (stereo not shown) [7a]", "µM", 13.1],
  ["CCOC(=O)C1=C(N)Oc2cc(O)c(/N=N/c3ccc(S(N)(=O)=O)cc3)cc2C1c1ccc(Cl)cc1Cl (stereo not shown) [7g]", "µM", 1.72],
  ["CCOC(=O)C1=C(N)Oc2cc(O)c(/N=N/c3ccc(S(N)(=O)=O)cc3)cc2C1c1ccc(C)cc1 (stereo not shown) [7b]", "µM", 29.5],
  ["CCOC(=O)C1=C(N/C(=C(/C#N)C(=O)OCC)c2ccc(C)cc2)Oc2cc(O)c(/N=N/c3ccc(S(=O)(=O)Nc4nccs4)cc3)cc2C1c1ccc(C)cc1 (stereo not shown) [11d]", "µM", 9.13]
]}
